Reported ka2 (two-state model, forward rate) values are given for each entry in this list.
# assay target: T1, recombinant human Cyclophilin A (CypA) (human, UniProt P62937 1-165)
# T1 construct: also called human peptidyl prolyl isomerase CypA; source: E. coli BL21(DE3), pET11c, purified (DEAE-Sepharose flow-through, MonoS cation exchange)
# T1 sequence (P62937 whole entry): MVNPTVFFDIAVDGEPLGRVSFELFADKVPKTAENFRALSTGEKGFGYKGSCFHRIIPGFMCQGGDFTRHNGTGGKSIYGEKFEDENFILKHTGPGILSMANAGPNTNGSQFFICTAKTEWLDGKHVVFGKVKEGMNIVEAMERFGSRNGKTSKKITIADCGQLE
# test method notes: SPR
# condition info: both partners purified

| binder | ka2 (two-state model, forward rate), s⁻¹ |
| --- | --- |
| AVRHFPRIWLH (source: synthetic peptide) [synthetic HIV-1 Vpr peptide sVpr^30-40] | 0.00145 |
| ELKSEAVRHFPRIWLH (source: synthetic peptide) [synthetic HIV-1 Vpr peptide sVpr^25-40] | 0.0028 |
| HFPRI (source: synthetic peptide) [synthetic HIV-1 Vpr peptide sVpr^33-37] | 0.00138 |
| ELLEELKSEAVRHFPRIWLH (source: synthetic peptide) [synthetic HIV-1 Vpr peptide sVpr^21-40] | 0.0084 |
| RHFPRIW (source: synthetic peptide) [synthetic HIV-1 Vpr peptide sVpr^32-38] | 0.0011 |

Source listed as paper PMC2959089.
